# MEASUREMENT_PROTOCOL: physchem
# EXPERIMENTAL_CONTEXT: aqueous buffer
REPORTED_ENDPOINT: solubility
# number then unit; no other words

# query: solubility of entry "O=C1c2ccccc2C(=O)c2c1ccc(O)c2O"
23 mM

----------
# MEASUREMENT_PROTOCOL: physchem
# EXPERIMENTAL_CONTEXT: aqueous buffer
REPORTED_ENDPOINT: solubility

# query: solubility of entry O=C1c2ccccc2C(=O)c2c(O)ccc(O)c21 [quinizarin]
31 mM
